Each recorded value in this set is attributed to ChEMBL document CHEMBL2380254.

System: SW-620
Test: Growth inhibition of human SW620 cells assessed as cell growth at 10 uM after 48 hrs by sulforhodamine B assay
Assay type: functional
Conditions: SW-620, 48 h, read-out: Activity
Below, each entry is listed alongside its reported growth at 10 µM.
# unit: % | format: bare number

                               query_smiles      metric_name  unit_name  recorded_value
0  CC(C)=CCC/C(C)=C/CC/C(C)=C/CC[C@]1(C)CCc2c3c(cc(C)c2O1)OCN(C1CCN(Cc2ccccc2)CC1)C3  growth at 10 µM          %             100
1  CC(C)=CCC/C(C)=C/CC/C(C)=C/CC[C@]1(C)CCc2c3c(c(C)c(C)c2O1)OCN(CCc1ccc(O)cc1)C3  growth at 10 µM          %            48.4
2  CC(C)=CCC/C(C)=C/CC/C(C)=C/CC[C@]1(C)CCc2c(CNCCc3ccc(O)cc3)c(O)c(C)c(C)c2O1  growth at 10 µM          %             101
3  COc1ccc(CCN2COc3c(C)c(C)c4c(c3C2)CC[C@@](C)(CC/C=C(\C)CC/C=C(\C)CCC=C(C)C)O4)cc1OC  growth at 10 µM          %             101
4  CC(C)=CCC/C(C)=C/CC/C(C)=C/CC[C@]1(C)CCc2c3c(cc(C)c2O1)OCN(CCCCCCO)C3  growth at 10 µM          %           -66.3
5  CC(C)=CCC/C(C)=C/CC/C(C)=C/CC[C@]1(C)CCc2c3c(cc(C)c2O1)OCN(CCCCCCCCO)C3  growth at 10 µM          %             -46

Switching to the query record.
In: Quick one: give measured growth at 10 µM for "CC(C)=CCC/C(C)=C/CC/C(C)=C/CC[C@]1(C)CCc2c3c(c(C)c(C)c2O1)OCN(CCCCO)C3"
Out: -16.1
